Data credit: patent US20190077795A1

Target: human PRMT6 (Homo sapiens)
Construct: Flag-PRMT6-His; made in house; host or cells: HEK 293F cells (BacMam baculovirus, pFastBacMam)
Sequence (Q96LA8 with tags, fused parts or gaps): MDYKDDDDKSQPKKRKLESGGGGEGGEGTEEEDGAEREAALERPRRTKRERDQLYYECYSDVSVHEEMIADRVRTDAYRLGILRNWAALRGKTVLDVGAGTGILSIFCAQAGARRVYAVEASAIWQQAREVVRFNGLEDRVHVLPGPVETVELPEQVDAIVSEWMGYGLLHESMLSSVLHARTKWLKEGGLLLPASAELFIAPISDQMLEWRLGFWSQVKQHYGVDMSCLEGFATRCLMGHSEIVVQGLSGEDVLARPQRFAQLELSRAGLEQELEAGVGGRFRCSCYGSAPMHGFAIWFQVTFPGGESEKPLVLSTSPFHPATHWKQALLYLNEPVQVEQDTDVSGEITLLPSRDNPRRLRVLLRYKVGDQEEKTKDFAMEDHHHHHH
Assay: PRMT6 Biochemical Assay
Details: peptide substrate, 3H-SAM Flashplate assay; read-out: PRMT6 IC50
pIC50: −log10 of the molar value.
reportedEndpoint: pIC50

Illustrative cases are given below, each with its answer.
molecule="CNCCN(C)Cc1c[nH]nc1-c1ccc(OC(CO)CC(C)C)cc1 (centres unmarked)" assayresult=7.47
molecule=CN(CCN)Cc1c[nH]nc1-c1cc(F)c(Cl)c(C(F)(F)F)c1 assayresult=7.87
molecule=CNCCN(C)Cc1c[nH]nc1-c1ccc(OCCOc2ccc(C3CCOCC3)cc2)cc1 assayresult=8.39

(I) CNCCN(C)Cc1c[nH]nc1-c1ccc(OC2CCC(OC(C)C)CC2)cc1 (centres unmarked)
(II) CNCCN(C)Cc1ccnn1[C@H]1CC[C@@H](COC)CC1
Request: Between I and II , which one shows the larger pIC50 value? Kindly state the label of the option you pick.
Result: I

----------
Biological target: human PRMT6 (Homo sapiens)
Construct: Flag-PRMT6-His; made in house; host or cells: HEK 293F cells (BacMam baculovirus, pFastBacMam)
Test: PRMT6 Biochemical Assay
Details: peptide substrate, 3H-SAM Flashplate assay; read-out: PRMT6 IC50
Source text: S-adenosylmethionine (SAM), S-adenosylhomocysteine (SAH), bicine, Tween20, dimethylsulfoxide (DMSO), bovine skin gelatin (BSG), sodium butyrate and Tris(2-carboxyethyl)phosphine hydrochloride solution (TCEP) were purchased from Sigma-Aldrich at the highest level of purity possible. ^3H-SAM was purchase from American Radiolabeled Chemicals with a specific activity of 80 Ci/mmol. 384-well streptavidin Flashplates were purchased from PerkinElmer. […]
reportedEndpoint: IC50 (nM)

# count of solved cases: 4
compound="CNCCN(C)Cc1c[nH]nc1-c1cc(OCCOC)cc(OC(F)(F)F)c1 [Compound 96]" reportedendpoint=IC50 assayresult=5130
compound="CCC(CC)Oc1ccc(-n2ncc(C)c2CN(C)CCNC)cc1 [Compound 114]" reportedendpoint=IC50 assayresult=590
compound="CNCCN(C)Cc1c[nH]nc1-c1ccc(N2CC3CCCC3C2)nc1 (centres unmarked) [Compound 58]" reportedendpoint=IC50 assayresult=8.35
compound="CNCCN(C)Cc1c[nH]nc1-c1ccc(OC2CCC(OCCOC)CC2)cc1 (centres unmarked) [Compound 98]" reportedendpoint=IC50 assayresult=28.9

(I) CNCCN(C)Cc1c[nH]nc1-c1ccc(OCCOc2cccc(OCCN3CCOCC3)c2)cc1 [Compound 8]
(II) CNCCN(C)Cc1c[nH]nc1-c1ccc(OC2CCC(OC)CC2)cc1 (centres unmarked) [Compound 86]
(III) CNCCN(C)Cc1c[nH]nc1-c1ccc(OCCCOC)c(OCC2CCOC2)c1 (centres unmarked) [Compound 68]
(IV) CNCCN(C)Cc1c[nH]nc1-c1cc(CC(C)C)cc(OCCOC)c1 [Compound 71]
Request: Hey, can you sort those compounds up there by IC50, smallest first? Please respond by ranking the labels in the order requested.
Result: I, II, III, IV

(1) CNCCN(C)Cc1c[nH]nc1-c1ccc(OCCCOC)c(OCC2CCOCC2)c1 [Compound 87]
(2) CNCCN(C)Cc1c[nH]nc1-c1ccc(OC2CC(OCCC3CCCCC3)C2)cc1 (centres unmarked) [Compound 100]
Request: Hi team, can someone confirm which has the larger IC50: 1 or 2 ? Thanks. Refer to your chosen entry by its label in the reply.
Result: 1
(1: 78.3 nM, 2: 4.65 nM)
